Assay: protein stability index of a GFP-peptide fusion (GPS, HEK-293T) (PSI 1-6); higher = more stable;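 note: 24-mer peptide tiles fused after GFP, lentivirally expressed, FACS-sorted into six equal bins by GFP/DsRed ratio, decoded by Illumina sequencing, PSI is the read-weighted mean bin number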
Conditions: treatment: DMSO; c terminus: a fixed tail appended
For each record, write down the corresponding protein stability index.
One number for each entry.

LRAQVPFEQILSLPELKANPFKER [CIB1]: 3.17
QGPTPRYFTWDEVAQRSGCEERWL [FADS1]: 3.43
ALGAPSKSPSSPQAAFTQQGMEGI [TBX5]: 4.59
LENRIQREIALAKKHGTQNKRAAL [CHMP4C]: 4.09
SRLLLLEQELKTVTYSLLKRLKER [SMAD6]: 2.77

I'm hoping you can list protein stability index for every sequence here, please.
1. ATLFFHYIKTPLFNPEVAKYLKVP [IQUB]
2. IIANTMAFQNDVYEWARDHRAHHK [SCD]

A.
1: 2.93; 2: 2.52

====

Test: protein stability index of a GFP-peptide fusion (GPS, HEK-293T) (PSI 1-6); higher = more stable
Details: treatment: MLN4924 1 uM, 8 h; c terminus: a fixed tail appended
Tag: y if measured protein stability index is not below 3, n if it is.

Some solved entries appear below for comparison.
AHHPLHPHLMQEHMGTNVIVANTM [HNF4A]: y
VSLAVTLHRLKFLGFARRNWGNGK [GDAP1]: n
ESEDCKLPSNPCATTNACEKPIGS [KRT33B]: y

Q. // inclusive: protein stability index at least 3? input: LILFAWGTLLFYIGGHLVRDNDHP [FUT8]
A. y

Q. Is protein stability index at least 3? Consider YHQGCLVNPTGNLPMWSNQTWNNS [NANOGP8]
A. n

Q. Kindly determine if protein stability index recorded for PDFYKQSSPNLQVSSDGTLKYMEV [PCDHGC5] is above or exactly 3.
A. y

Q. Could you please find out whether HTAKCEKLQKEKEELERRFEDEVK [MTUS2] has protein stability index that meets 3 or exceeds it?
A. y

Q. Could you please find out whether FKRSTGTWHHTKPLLPSDLRRTGC [GAN] has protein stability index that meets 3 or exceeds it?
A. n

Q. Has PSNGRIDIKQLIAKKIKLTAEAEE [SOAT1] a recorded protein stability index greater than or equal to 3?
A. y

Q. Textbook exercise: given the entry LLSSVHVLDLEARGYIKPHVDSIK [ALKBH7] , state whether its protein stability index is greater than or equal to 3.
A. y

Q. Can EKEESRREAEKQNYLAEHCPPLHI [TNNI2] be said to have protein stability index at or above 3?
A. y

====

Experiment: protein stability index of a GFP-peptide fusion (GPS, HEK-293T) (PSI 1-6); higher = more stable
Conditions: treatment: MLN4924 1 uM, 8 h; c terminus: a fixed tail appended
Consider the following sequences; for each one, report its protein stability index.
Numbers only.

AISPGRFPEALDELPLPPFLQPLD [ANKRD9]: 3.96
NLGGGDPKGWRQLAQEAEAWLNYP [OAS1]: 3.37
TPPSSRRVWSPPRVHKVEMGFGGG [ZBTB22]: 3.33
WVYSGRRGVHCWVCDESVRKLSSA [PRIM1]: 3.04
ILLDPILMFFIMAAMLSMVKYNSC [POMT2]: 3.2

Go through the items and report each one's protein stability index.
1. CTLRQKLIFSPCSDCEEEEEEEEE [WEE1]
2. KGHERTVQYLQHLGTENLHLIFSY [VPS39]

A.
1: 5; 2: 2.59

Batch request: protein stability index per item, same order as input.
1. ANPFQAYLDVDLTLTREQTERLSH [RTN2]
2. DALDKIRYESLTDPSKLDSGKELK [HSP90AB1]

A.
1: 3.67; 2: 5

====

Assay: protein stability index of a GFP-peptide fusion (GPS, HEK-293T) (PSI 1-6); higher = more stable
Settings: treatment: DMSO; c terminus: a fixed tail appended
Rule: protein stability index of 3 or more gives t; anything lower gives f.

Recorded results for 5 sequences are shown here.
PQLGLDGPGEPDVRDGFSATFEKI [PSD2]: t
VDLDPTDGKLFPSDGFRDCKKGDP [ELF3]: t
KCVTMSSAVVQLYAADRNCMWSKK [WASL]: f
SLEDLIFESLPENASHKLEVRLVP [ATE1]: f
SGPEAARAGGWVSGEEFYMLTRRV [PKD2L1]: f

Q. Hello, I need to know if EDQGGLEAVRQEMRRQEPLPPPPP [WAS] has measured protein stability index not below 3. Thanks!
A. t

Q. Does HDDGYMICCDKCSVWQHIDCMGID [KMT2E] have a reported protein stability index of at least 3?
A. f

Q. Kindly determine if protein stability index recorded for EVMKCIVEVISDTLSKPSPMPVSQ [CHGA] is above or exactly 3.
A. f

Q. Decide: protein stability index of QSRSFRILAHLTGTEFMQDPDEEH [PDLIM7] >= 3?
A. t

Q. protein stability index >= 3 for AELQCEVAALREEQKVLSRLVESL [RASAL3] ?
A. t

Q. Check the entry QQMVASGTGAVVTSLFMTPLDVVK [SLC25A39] : does protein stability index equal or exceed 3?
A. f

====

Assay: protein stability index of a GFP-peptide fusion (GPS, HEK-293T) (PSI 1-6); higher = more stable
Conditions: treatment: MLN4924 1 uM, 8 h; c terminus: a fixed tail appended
For each record, write down the corresponding protein stability index.

Some solved cases for reference:
PVGEPVTNVRLQPAATWNLEEKRL [FCHO1]: 4.63
LQEKSQCALEEYVRSQYPNQPTRF [NR2F2]: 3.24
TPHMLLDLSDLLQVDSLRPASFPT [BRF1]: 2.43
GRHYWEVEVGDKTHWAVGVCRDSV [TRIM39]: 2.42
PPETVQNWIELLSGETWNPLKLHY [GOLPH3]: 2.12
ARKYFERLPGGGWTLRRTKELRKD [DYRK1B]: 3.86
ADDPTSGFSSIPDAFWWAVVTMTT [KCNA3]: 2.6
SMLVAGNDRVQTIITQLEDSRRVT [TRIM63]: 3.72

Could you report protein stability index for every entry in the following list?
1. IQVLPKLSSSIIHEIDSILGNKPY [KCNAB2]
2. EPHPRPLLQRELMVPGTRHSAVLR [TNXB]
3. FAHSSNLLRHQRIHTGERPYKCPE [ZNF263]
4. KAILEQNFRDLVRDLEKQKEEVRA [TRIM29]

A.
[2.28, 4.2, 3.35, 4.48]

For each listed entry, give its protein stability index.
1. LCSVGASKAVFLWNMDKYTMIRKL [WSB1]
2. EQVRFLMKSYSFLREAVPGILRAR [SOAT2]
3. ENVLAALEGLNLSILKAMGKTKKD [NECAB1]
4. EQPFIPVEVLVDLFLKEGACDELF [PRAME]

A.
2.17
2.1
3.31
2.39

====

Experiment: protein stability index of a GFP-peptide fusion (GPS, HEK-293T) (PSI 1-6); higher = more stable
Conditions: treatment: DMSO; c terminus: a fixed tail appended
Please go through the items and note down their protein stability index.
One number for each entry.

Look over these answered cases.
QYRPSDLLCPETYVWVPIEQCLPS [ATE1]: 2.28
RSIQGHNDYICPATNQCTIDKNRR [ESR2]: 3.84
NKRKTYTESYIARPDGDCASSLNG [ZC2HC1A]: 4.18
RREQAAAAPFPSPAPASPAISVVG [TFE3]: 4.22

I have 3 sequences here; please give me protein stability index for each one.
1. ALKAAKREQEKKPKKEANQAPKSK [LRRC59]
2. GSDKCVFLKNTEVSSMECEKNLYW [CD69]
3. GLGHGSTSRGGPWVGTGLAAALAG [CPOX]

A.
[5.24, 3.06, 3.17]

====

Experiment: protein stability index of a GFP-peptide fusion (GPS, HEK-293T) (PSI 1-6); higher = more stable
Conditions: treatment: MLN4924 1 uM, 8 h; c terminus: a fixed tail appended
Field: protein stability index. Provide a value for each of the sequences that follow.

Below: 6 sequences and their reported protein stability index.
PAEEAGPEGGLEEPDALDDSLTSL [FOXJ1]: 5.56
KGEFKDEEETVTTKHIHITQATET [CLINT1]: 5.4
LPCSSYIDSYDPSTGEVYCRVPNS [ALDH8A1]: 2.88
GGGGGGGGGGGGGGTSSNNSEEEE [ANKRD17]: 5.41
ITWNRVVLLHGPPGTGKTSLCKAL [TRIP13]: 2.13
SVVSYTLKDIHDDQDYLHSLGKAR [FLOT1]: 3.54

Hey, can you go through the list below and give me protein stability index for every item?
1. EDFLLKKPIVPTDGKRVIVVFHCE [CDC25A]
2. LVKDNPQRSYFLRIFDIKDGKLLW [WASL]
3. ECNECGKAFSRSSGLFNHRGIHNI [ZSCAN9]
4. KMELLILETQAQVCQALAQVDGGA [CPOX]

A.
[2.25, 2.05, 2.16, 2.18]
